# experimental details: qHTS for induction of synthetic lethality in tumor cells producing 2HG: qHTS for the HT-1080-IDH1KD cell line
# condition set: HT-1080 IDH1 knockdown viability, ATP luminescence, 48 h; series mostly up to 46.1 µM
Hit rate of the full screen: of about 360,000 compounds, about 7,500 (2.1%) were called active. Another 8% or so got no clear call; they are omitted. The call rests on the fitted dose curve; in most records, active means well fitted cell-killing curve with a large enough effect; inconclusive means small, poorly fitted or top-dose-only effect, or effect the other way, or another doubt; inactive means no such curve, though single readings can be large or run the other way. The sample holds actives, similar compounds and a random draw of the others, so the mix is not that of the screen.
Give one outcome, nothing more. List: y for active, n for inactive

[
  {
    "compound": "Cc1ccc(S(=O)(=O)N2CCC(C(=O)NCCC3=CCCCC3)CC2)cc1C",
    "assigned label": "n"
  },
  {
    "compound": "COc1ccc2c(c1)CCCO[C@]21O[C@H](CCO)C[C@H](O)[C@H]1O",
    "assigned label": "n"
  }
]

Next, consider the following compound.
Enquiry: Field: outcome | Entry: "C[C@@H](NC(=O)OC(C)(C)C)c1nnc(S(=O)(=O)Cc2ccccc2)o1"
Return: y

====

# experimental details: qHTS for induction of synthetic lethality in tumor cells producing 2HG: qHTS for the HT-1080-IDH1KD cell line
# condition set: HT-1080 IDH1 knockdown viability, ATP luminescence, 48 h; series mostly up to 46.1 µM
The whole screen tested about 360,000 compounds, of which about 7,500 (2.1%) were called active. About 8% were inconclusive and are not listed. The call rests on the fitted dose curve; in most records, active means well fitted cell-killing curve with a large enough effect; inconclusive means small, poorly fitted or top-dose-only effect, or effect the other way, or another doubt; inactive means no such curve, though single readings can be large or run the other way. Many of the other results were omitted from the sample, so actives are more common in it than they were.
Give one outcome, nothing more. List: active, inactive

[
  {
    "compound": "COc1cccc(/C=N\\NC(=O)C2=NNC(=O)C2C)c1O (stereo not drawn)",
    "assigned label": "active"
  }
]

Enquiry: Field: outcome | Entry: COc1ccc(CN2C(=O)C(CC(=O)NCc3cccc4ccccc34)CC(C(=O)N3CCOCC3)=C2C)cc1 (stereo not drawn)
Return: inactive

Enquiry: Field: outcome | Entry: "CC(C)(C)C(=O)c1c(N)[nH]c(C(=O)c2ccccc2)c1-c1ccc(F)cc1"
Return: inactive

Enquiry: Field: outcome | Entry: "COc1cccc(-c2cc3nc(NCc4ccccc4OC)n(C)c(=O)c3s2)c1"
Return: inactive

Enquiry: Field: outcome | Entry: CC(C)N1C(=O)c2ccccc2NC(=O)C1C(=O)NCc1cccs1 (stereo not drawn)
Return: inactive

Enquiry: Field: outcome | Entry: "COc1ccc(NC(=S)NCc2cccs2)c(OC)c1"
Return: inactive

====

# experimental details: qHTS for induction of synthetic lethality in tumor cells producing 2HG: qHTS for the HT-1080-IDH1KD cell line
# condition set: HT-1080 IDH1 knockdown viability, ATP luminescence, 48 h; series mostly up to 46.1 µM
# From the text: Unbiased genomic sequencing for 22 glioma genomes found recurrent mutation of IDH1 on chromosome 2q33, a gene encoding the cytosolic isoform of IIDH1 associated with the tri-carboxylic acid cycle (TCA) that catalyzes the oxidative decarboxylation of isocitrate, yielding alpha-ketoglutarate and CO2 via NADP+ to NADPH conversion. […] Concentration-response curves were fitted to the signals arising from the resulting luminescence. […]
The whole screen tested about 360,000 compounds, of which about 7,500 (2.1%) were called active. Roughly 8% stayed inconclusive and do not appear here. The call rests on the fitted dose curve; in most records, active means well fitted cell-killing curve with a large enough effect; inconclusive means small, poorly fitted or top-dose-only effect, or effect the other way, or another doubt; inactive means no such curve, though single readings can be large or run the other way. This is one part of a sample in which actives are shown more often than they occur.
Give one outcome, nothing more. List: active, inactive

Below are worked cases with known answers.
[
  {
    "compound": "CN(C)C(=O)COC(=O)c1cccc(S(=O)(=O)N2CC3(C)CC2CC(C)(C)C3)c1 (centres undefined)",
    "assigned label": "inactive"
  },
  {
    "compound": "O=C(c1ncn2c1c(=O)[nH]c1ccccc12)N1CCc2ccccc2C1",
    "assigned label": "inactive"
  },
  {
    "compound": "CC(C)C1CC2=C(C(=O)OC(C)(C)O2)C(c2ccc(F)cc2)O1 (centres undefined)",
    "assigned label": "inactive"
  },
  {
    "compound": "CCN(c1ccccc1)S(=O)(=O)c1ccc(C(=O)Nc2nccs2)cc1",
    "assigned label": "inactive"
  },
  {
    "compound": "O=C(O)C(=Cc1ccc([N+](=O)[O-])cc1)CCc1ccccc1",
    "assigned label": "inactive"
  },
  {
    "compound": "Cc1ccc(Cn2c(C)c(C(=O)NCc3ccccc3C(F)(F)F)sc2=O)cc1",
    "assigned label": "inactive"
  },
  {
    "compound": "CCCC(=O)N1CCC1(C)C(=O)NS(=O)(=O)c1ccc(Cl)cc1 (centres undefined)",
    "assigned label": "inactive"
  },
  {
    "compound": "O=C(NCc1ccc(F)cc1)c1cc(C2CCCCN2C(=O)c2ccccn2)on1 (centres undefined)",
    "assigned label": "inactive"
  }
]

Enquiry: Field: outcome | Entry: CCN(CC)C(=O)C1=C(C)N(Cc2ccc(F)cc2)C(=O)C(CC(=O)NC2CCCC2)C1 (centres undefined)
Return: inactive
